Each recorded value in this set is attributed to PubChem BioAssay AID624129.

target: C-X-C chemokine receptor type 6 (Homo sapiens); assay: potency against CXCR6 with APJ panel – cell-based, beta-arrestin, DiscoveRx, uHTS hits, dose response (AID 624129); details: CXCR6 beta-arrestin (DiscoveRx) antagonist cell assay, CXCR6, run 2, dose range 1
observable: pIC50
When answering, recall that pIC50 equals minus log10 of the concentration in mol/L, and write that number alone.

Req: Need pIC50, item `CCOC(=O)c1c(C)oc2c1c(C=NCc1ccccn1)c(O)c1ccccc12`
Resp: 5.17

Req: Same thing, different molecule: `COc1ccc([N+](=O)[O-])c(S(=O)(=O)c2ccccc2)n1`
Resp: 4.60

Req: Entry `NNc1nc(-c2ccccc2)cc(-c2ccccc2O)n1` please
Resp: 5.10

Req: Now the same for `CCCC(=O)OCCNc1cc(Sc2nccn2C)c2nonc2c1[N+](=O)[O-]`
Resp: 5.30

Req: Another molecule: `N=C1S/C(=C\c2ccco2)C(=O)N1c1nccs1`
Resp: 5.02

Req: Also need `Cc1ccc2oc(/N=C(\N)NC(=O)C(C)(C)C)nc2c1` , thanks.
Resp: 4.80

Req: Also `Oc1c(Br)cc(Br)cc1C=NCc1ccccc1` ?
Resp: 4.64

Req: Same for `O=C1C=CC2(O[C@H](c3ccccc3)[C@@H](c3ccccc3)O2)[C@H](Sc2ccccc2O)C1`
Resp: 5.40

Req: Also check Cn1c(O)c(C2=NNC(c3ccc(Cl)cc3)C2)c(=O)n(C)c1=O (stereo unspecified)
Resp: 4.77

Req: Another: `Cc1ccc(OCCN2C(=O)c3ccccc3C2=O)c([N+](=O)[O-])c1`
Resp: 5.31

Req: Query `O=C(Nc1cccc(C(F)(F)F)c1)Oc1ccc(Cl)c2cccnc12` next
Resp: 6.28

Req: Do the same for `CN(c1ccccc1)S(=O)(=O)c1ccc(NC(=O)c2nc(S(C)(=O)=O)ncc2Cl)cc1` please
Resp: 5.20

Req: Subsequent entry: `Cc1c(Nc2cc(Cl)c3nonc3c2[N+](=O)[O-])c(=O)n(-c2ccccc2)n1C`
Resp: 5.34

Req: Try the molecule C=C(CN(C)C)C(=O)c1ccc(OC2OC(COC(C)=O)C(OC(C)=O)C(OC(C)=O)C2OC(C)=O)cc1 (stereo unspecified)
Resp: 4.68

====

target: C-X-C chemokine receptor type 6 (Homo sapiens) (UniProt O00574); experiment: potency against CXCR6 with APJ panel – cell-based, beta-arrestin, DiscoveRx, uHTS hits, dose response (AID 624129); conditions: CXCR6 beta-arrestin (DiscoveRx) antagonist cell assay, CXCR6, dose range 1
Sequence (O00574 whole entry, looked up): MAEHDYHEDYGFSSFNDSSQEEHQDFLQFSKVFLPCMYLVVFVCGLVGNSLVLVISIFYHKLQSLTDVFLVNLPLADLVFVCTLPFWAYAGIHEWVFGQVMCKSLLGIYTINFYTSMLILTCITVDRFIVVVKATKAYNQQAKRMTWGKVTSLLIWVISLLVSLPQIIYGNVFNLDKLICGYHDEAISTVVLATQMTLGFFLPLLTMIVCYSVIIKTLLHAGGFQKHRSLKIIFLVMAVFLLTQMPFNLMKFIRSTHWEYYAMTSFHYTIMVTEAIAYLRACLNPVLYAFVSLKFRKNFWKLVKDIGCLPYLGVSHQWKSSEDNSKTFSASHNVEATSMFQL
The source made the active and inactive calls. The rule behind the calls is not given here.
Please reply with one of these outcomes: true (active), false (inactive)

Here are 2 compounds together with their reported answers.
{"columns": ["compound", "assigned class"],
 "data": [
  ["Cc1cccc(Cc2cnc(N3C(=N)SC(C)C3=O)s2)c1 (stereo not drawn)", "true"],
  ["Cc1cc(O)c(-c2cc(O)c(C)cc2O)cc1O", "false"]
]}

Req: For `O=C1C=CC(=O)N1CCNc1ncc(C(F)(F)F)cc1Cl` , which call appears in the assay record?
Resp: false

Req: Next compound up: `Nc1cccc2c1C(=O)N(C(=O)/C=C/c1cccc(F)c1)C2=O`
Resp: false

Req: Further, for COc1cc(C(=O)NCC(c2ccco2)N2CCc3ccccc3C2)cc(OC)c1OC (stereo not drawn) ?
Resp: false

Req: Do the same for `C=CCN(CC=C)C(=S)NC(=O)c1ccc(C)c(Br)c1` please
Resp: false

Req: And `COc1ccc(-c2c(C(=O)c3ccccc3)[nH]c(N)c2C(=O)c2ccccc2)cc1OC` ?
Resp: false

Req: Try this compound too: `COc1ccc(CNC(=O)c2nc(S(=O)(=O)Cc3ccccc3)ncc2Cl)cc1`
Resp: false

Req: Try this compound too: `CCn1nccc1C(=O)Nc1nc2ccccc2n1CCN1CCCCC1`
Resp: false

Req: Subsequent entry: `COc1cc(/C=C/C(O)=C/C(=O)/C=C/c2ccc(O)cc2)ccc1O`
Resp: false

Req: Would you mind doing CN(C)CC1CC/C(=C\c2ccc(O)cc2)C1=O (stereo not drawn) as well?
Resp: false

Req: Lookup `Cc1nnc(Sc2cc(NCCO)c([N+](=O)[O-])c3nonc23)s1`
Resp: false

Req: # repeat for COC(=O)c1ccc(/C=C(\C#N)C(=O)NC(C)c2ccccc2)cc1 (stereo not drawn)
Resp: false

Req: // repeat for `Cn1c(=O)n(C)c2cc([N+](=O)[O-])c(N3CCN(C(=O)c4cccc(Cl)c4)CC3)cc21` and report
Resp: false

Req: Field entry: `COC(=O)c1ccccc1-c1c2ccc(=N)cc-2oc2cc(N)ccc12`
Resp: false

Req: Further, for COc1cc(C2C(C#N)=C(N)Oc3n[nH]c(-c4cccnc4)c32)cc(Br)c1O (stereo not drawn) ?
Resp: false

Req: Continue with `CC(=O)NS(=O)(=O)c1ccc(Nc2ccc([N+](=O)[O-])c3nonc23)cc1`
Resp: false

Req: Same question for CC[N+]1(C)CCC(O)(/C=C/c2ccccc2)C(C(=O)/C=C/c2ccccc2)C1 (stereo not drawn) please.
Resp: false

====

# key: entry, value: pIC50
molecular target: Apelin receptor (Homo sapiens) (UniProt P35414); test: potency against CXCR6 with APJ panel – cell-based, beta-arrestin, DiscoveRx, uHTS hits, dose response (AID 624129); details: CXCR6 beta-arrestin (DiscoveRx) antagonist cell assay, APJ, run 3, dose range 1
API: returns pIC50 as number; meaning -log10 of concentration in mol/L.

{"columns": ["molecule", "assay system", "pIC50"],
 "data": [
  ["CC1(C)CC(=O)C(C=Nc2ccc(C(=O)c3ccccc3)cc2N=CC2=C(O)CC(C)(C)CC2=O)=C(O)C1", "Apelin receptor (Homo sapiens) (UniProt P35414)", 4.12],
  ["O=C1c2sc3nc4ccccc4n3c2C(=O)N1c1ccccc1Cl", "Apelin receptor (Homo sapiens) (UniProt P35414)", 4.87],
  ["Cc1ccc(NC(=S)N/N=C/c2ccc([N+](=O)[O-])s2)cc1", "Apelin receptor (Homo sapiens) (UniProt P35414)", 4.52],
  ["O=[N+]([O-])c1c(NCCCO)cc(Sc2nc3ccccc3s2)c2nonc12", "Apelin receptor (Homo sapiens) (UniProt P35414)", 4.88],
  ["CCN1/C(=C\\C=C2\\C(=O)N(c3ccccc3)C(=S)N2C)Sc2ccccc21", "Apelin receptor (Homo sapiens) (UniProt P35414)", 4.96]
]}

Req: What value of pIC50 has been recorded for this entry: `Oc1c(Cl)cc(Cl)c2cccnc12`
Resp: 5.48

Req: Next record, please: `C/C(=N\NC(=O)Cc1ccc(Cl)cc1)c1ccccn1`
Resp: 4.47

Req: Again, but for O=C(Nc1ccccc1Cl)/C(Cl)=C(\Cl)S(=O)c1ccccc1 (stereo not given)
Resp: 4.98

====

target: C-C chemokine receptor type 6 (Homo sapiens); assay: potency against CXCR6 with APJ panel – cell-based, beta-arrestin, DiscoveRx, uHTS hits, dose response (AID 624129); settings: CXCR6 beta-arrestin (DiscoveRx) antagonist cell assay, CCR6, dose range 1, mean IC50 across replicates
Labelling: IC50 reported below 6 µM becomes TRUE; at or above becomes FALSE.

Study these solved cases before continuing.
{"columns": ["compound", "assay system", "assigned class"],
 "data": [
  ["CC(=O)OCCCNc1cc(Sc2ccc(C)cc2)c2nonc2c1[N+](=O)[O-]", "C-C chemokine receptor type 6 (Homo sapiens)", "FALSE"],
  ["O=C1C=CC(=O)N1c1ccc(-c2nc3ccccc3o2)cc1", "C-C chemokine receptor type 6 (Homo sapiens)", "TRUE"],
  ["COc1ccc(-n2c(O)c(/C=N/Nc3nc(C)cc(C)n3)c3ccccc3c2=O)cc1OC", "C-C chemokine receptor type 6 (Homo sapiens)", "FALSE"]
]}

Req: Given the entry `N#CC(C#N)=C1C=CC=CN1/C(=C\c1ccco1)C(=O)c1ccc(Br)cc1` , would its reported IC50 be below 6 µM?
Resp: FALSE

Req: What about this compound? COc1ccc(CN2C(=O)C(Cc3ccccc3)Nc3ncnc(N4CCN(c5ccccc5)CC4)c32)cc1 (configuration not stated)
Resp: TRUE

Req: Query `COc1ccc(C[C@@H]2OC3(C=CC(=O)C=C3)O[C@H]2Cc2ccc(OC)cc2)cc1` next
Resp: TRUE

Req: Also, `Cc1[nH][nH]c(=O)c1C(c1c(C)[nH][nH]c1=O)c1cn(Cc2ccc(Cl)c(Cl)c2)c2ccccc12` please.
Resp: FALSE

Req: Then what about the compound CCC(=O)OCOc1ccc(/C=C2/CCC(CN(C)C)C2=O)cc1 (configuration not stated) ?
Resp: FALSE

Req: Another compound to check: `CCC(=O)OCCNc1cc(Sc2nc3ccccc3[nH]2)c2nonc2c1[N+](=O)[O-]`
Resp: TRUE

Req: Another compound: `O=C(CSc1cccc2cccnc12)N1CCCC1`
Resp: TRUE
